These data points were gathered from PubChem BioAssay.

Kindly state GFP response relative to DMSO for each of the entries shown.
experiment: LAP4-GFP expression modulators in yeast, confirmation, cell-based, cherry picks, flow cytometry, mother/daughter gates (AID 2271);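 note: ratio of sample to DMSO plate mean so 100% equals DMSO level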; settings: S. cerevisiae LAP4-GFP strain, 3 h, measured here: daughter cell gate response, at 10 µM, stronger effect = higher value, 100 means same as DMSO control
Hi! Could you send only the number? It should be in %, unit omitted.

Prompt: Could you tell me which GFP response relative to DMSO is on file for CCN(CC)S(=O)(=O)c1cccc(C(=O)NCC(c2ccccc2)N(C)C)c1 (stereo unspecified) ?
Completion: 111

Prompt: Could you tell me which GFP response relative to DMSO is on file for Cc1c([N+](=O)[O-])cnc(Sc2ccccc2)c1[N+](=O)[O-] ?
Completion: 120

Prompt: Could you tell me which GFP response relative to DMSO is on file for O=C(c1ccccc1F)N1CCN(c2ccccc2)CC1 ?
Completion: 101

Prompt: Could you tell me which GFP response relative to DMSO is on file for O=[N+]([O-])c1ccc(N=Nc2c(Cl)cc(O)cc2Cl)cc1 ?
Completion: 150

Prompt: Could you tell me which GFP response relative to DMSO is on file for N#C/C(=C\c1c(N2CCCCCC2)nc2ccccn2c1=O)C(=O)NC1CCS(=O)(=O)C1 (stereo unspecified) ?
Completion: 107

Prompt: Could you tell me which GFP response relative to DMSO is on file for Brc1cc(Br)c2nc(-c3cccs3)ccc2c1 ?
Completion: 99.1

Prompt: Could you tell me which GFP response relative to DMSO is on file for O=C(N/N=C/c1c(Cl)cccc1Cl)c1cccc(F)c1 ?
Completion: 94.4

Prompt: Could you tell me which GFP response relative to DMSO is on file for COc1cc(/C=C2\C(=O)N(CCC#N)N=C2C)c(Br)cc1OC(C)C ?
Completion: 145

Prompt: Could you tell me which GFP response relative to DMSO is on file for Nc1ccccc1NC(=O)c1ccccc1 ?
Completion: 96

Prompt: Could you tell me which GFP response relative to DMSO is on file for Cc1ccc(-c2nc(NC(=O)c3nn(C)cc3[N+](=O)[O-])sc2C)cc1 ?
Completion: 97.2

Prompt: Could you tell me which GFP response relative to DMSO is on file for CCOC(=O)Cn1cc(/C=C/[N+](=O)[O-])c2ccccc21 ?
Completion: 153

Prompt: Could you tell me which GFP response relative to DMSO is on file for Cc1onc(-c2c(Cl)cccc2Cl)c1NC(=O)NNc1c(Cl)cncc1Cl ?
Completion: 102

Prompt: Could you tell me which GFP response relative to DMSO is on file for CS(=O)(=O)N1N=C(c2ccc3nccnc3c2)CC1c1ccccc1 (stereo unspecified) ?
Completion: 102

Prompt: Could you tell me which GFP response relative to DMSO is on file for Cn1c(=O)c(C(=O)NC2CCCCCCC2)c(O)c2ccccc21 ?
Completion: 94.1

Prompt: Could you tell me which GFP response relative to DMSO is on file for O=[N+]([O-])c1ccc(-c2cn3nc(-c4ccccc4)c(-c4ccccc4)nc3n2)cc1 ?
Completion: 115

Prompt: Could you tell me which GFP response relative to DMSO is on file for CN(C(=O)c1cccnc1)c1nc(-c2ccccc2)cs1 ?
Completion: 99

Prompt: Could you tell me which GFP response relative to DMSO is on file for CCc1cc(=O)oc2c(CN3CCCC3)c(O)c(Cl)cc12 ?
Completion: 105

Prompt: Could you tell me which GFP response relative to DMSO is on file for COc1ccc(NC(=O)Nc2ccon2)c(OC)c1 ?
Completion: 94.2

Prompt: Could you tell me which GFP response relative to DMSO is on file for Cc1cc(N=Nc2ccccc2C(=O)O)c(C)c(C)c1O ?
Completion: 109

Prompt: Could you tell me which GFP response relative to DMSO is on file for CC1CC2=C(CC1/C=N/NC(N)=S)C(C)(C)CCC2 (stereo unspecified) ?
Completion: 106

Prompt: Could you tell me which GFP response relative to DMSO is on file for COc1cccc(C(=O)Nc2ccc(NC(=O)c3cc4ccccc4o3)c(OC)c2)c1 ?
Completion: 92.5

Prompt: Could you tell me which GFP response relative to DMSO is on file for Cc1ccc(N2C(=O)C(Cl)=C(NCc3ccccc3)C2=O)c(C)c1 ?
Completion: 104

Prompt: Could you tell me which GFP response relative to DMSO is on file for CN(CCCS(=O)(=O)[O-])c1ccc(/C=C/c2ccc3ccccc3[n+]2C)cc1 ?
Completion: 102

Prompt: Could you tell me which GFP response relative to DMSO is on file for Cc1nn(C(=O)c2ccco2)c(C)c1Sc1ccccc1 ?
Completion: 99

Prompt: Could you tell me which GFP response relative to DMSO is on file for Cc1ncc2c(n1)-c1cc(F)ccc1SC2 ?
Completion: 89.6

Prompt: Could you tell me which GFP response relative to DMSO is on file for CCN1/C(=C/c2ccc3cc(C)ccc3[n+]2CC)Sc2ccc3sccc3c21 ?
Completion: 155

Prompt: Could you tell me which GFP response relative to DMSO is on file for Oc1cccc(/C=N/c2c(-c3ccco3)nc3ccccn23)c1 ?
Completion: 97.9

Prompt: Could you tell me which GFP response relative to DMSO is on file for Cc1cc(N2CCCCC2)n2nc(C)c(-c3ccccc3)c2n1 ?
Completion: 97.2

Prompt: Could you tell me which GFP response relative to DMSO is on file for CCCCCn1c(=O)c(C(=O)OCC)c(O)c2ccccc21 ?
Completion: 96

Prompt: Could you tell me which GFP response relative to DMSO is on file for Cc1noc2ncnc(Sc3ccc(Br)cc3)c12 ?
Completion: 133

Prompt: Could you tell me which GFP response relative to DMSO is on file for Cc1ccc(C(=O)N/C(=C/c2ccco2)C(=O)N2CCOCC2)cc1 ?
Completion: 106

Prompt: Could you tell me which GFP response relative to DMSO is on file for COc1ccc(C(=O)Nc2c(N)nc[nH]c2=O)cc1 ?
Completion: 97.5

Prompt: Could you tell me which GFP response relative to DMSO is on file for COc1cc(/C=C2\N=C(c3ccccc3)OC2=O)ccc1OC(C)=O ?
Completion: 98.2

Prompt: Could you tell me which GFP response relative to DMSO is on file for COc1ccc(N2CCN(C(=O)c3ccc(Br)cc3)CC2)c([N+](=O)[O-])c1 ?
Completion: 131

Prompt: Could you tell me which GFP response relative to DMSO is on file for COc1ccc(CC(=O)NCc2ccccn2)cc1OC ?
Completion: 95.6

Prompt: Could you tell me which GFP response relative to DMSO is on file for COc1ccc(-c2nc(NC(=O)c3cc(C(C)(C)C)nn3C)sc2C)cc1 ?
Completion: 101

Prompt: Could you tell me which GFP response relative to DMSO is on file for CC(C)c1nnc(NC(=O)c2nc(S(=O)(=O)Cc3ccc(F)cc3)ncc2Cl)s1 ?
Completion: 102

Prompt: Could you tell me which GFP response relative to DMSO is on file for CCC(=O)Oc1oc(-c2ccccc2)nc1C=Nc1ccccc1OC ?
Completion: 94.4

Prompt: Could you tell me which GFP response relative to DMSO is on file for Cn1cc([N+](=O)[O-])c(C(=O)Nc2nc(-c3ccc(Cl)cc3)cs2)n1 ?
Completion: 97.5

Prompt: Could you tell me which GFP response relative to DMSO is on file for Cc1nn2c(N3CCN(C(=O)c4ccco4)CC3)cc(C(C)(C)C)nc2c1-c1ccccc1 ?
Completion: 94.4

Prompt: Could you tell me which GFP response relative to DMSO is on file for Cc1ccc(CC2CC(=O)N(Cc3ccco3)C2=O)cc1 (stereo unspecified) ?
Completion: 97.2

Prompt: Could you tell me which GFP response relative to DMSO is on file for Cc1ccn2c(NC3CCCCC3)c(C(C)C)nc2c1 ?
Completion: 101

Prompt: Could you tell me which GFP response relative to DMSO is on file for COc1ccc(N2C(=O)c3cccc4cccc(c34)C2=O)nn1 ?
Completion: 91

Prompt: Could you tell me which GFP response relative to DMSO is on file for CC(=O)c1sc2nc(C)c3c(c2c1N)CCCC3 ?
Completion: 104

Prompt: Could you tell me which GFP response relative to DMSO is on file for O=C(OCc1cccc([N+](=O)[O-])c1)c1cnccn1 ?
Completion: 97.5

Prompt: Could you tell me which GFP response relative to DMSO is on file for Oc1c(Br)cc(Br)cc1C=Nc1ccc2[nH]ncc2c1 ?
Completion: 124
